The measurements presented in this section are drawn from patent US4853403A.

- Test system: antigen-induced anaphylactic shock death
- Method: Protective effect against anaphylactic shock in actively sensitized guinea pigs
- Type: in vivo, guinea pig (male)
- Test Context: Cavia porcellus; 30 mg/kg, oral, 30 minutes before antigen inhalation; survival 90 minutes or more; read-out: Protecting Effect (Number of test animal survivied/Number of test animal) (converted)
Measurement Kind: responders at 30 mg/kg (%)
The reply should contain only the number, in %.

Reported responders at 30 mg/kg of `O=C1NN(c2ccccc2)C(=O)C1=Cc1cc(O)c(O)c(CSc2ccccc2)c1` : 50

Reported responders at 30 mg/kg of Cn1c(=O)c2[nH]cnc2n(C)c1=O [theophylline, reference compound] : 50

Reported responders at 30 mg/kg of `CCOc1cc(C=C(C#N)C(N)=O)cc(CSc2c(Cl)cccc2Cl)c1O` : 75

Reported responders at 30 mg/kg of `COc1cc(C=C(C#N)C(N)=O)cc(CSc2ccccc2)c1O` : 50

Reported responders at 30 mg/kg of `CCOc1cc(C=C(C#N)C(N)=O)cc(CSc2ccc(Cl)cc2)c1O` : 100

Reported responders at 30 mg/kg of `CCOc1cc(C=C2CCNC2=O)cc(CSc2ccccc2)c1OC(=O)c1ccccc1` : 50

Reported responders at 30 mg/kg of `CCOc1cc(C=C(C#N)C(N)=O)cc(CSc2ccc(OC)cc2)c1O` : 75

Reported responders at 30 mg/kg of `CCOc1cc(C=C(C#N)C(N)=O)cc(CSc2ccccc2OC)c1O` : 75

Reported responders at 30 mg/kg of `CCOc1cc(C=C(C#N)C(N)=O)cc(CSc2ccc(C)cc2)c1O` : 50

Reported responders at 30 mg/kg of `CCOc1cc(C=C(C#N)C(N)=O)cc(CSc2ccc(C(C)(C)C)cc2)c1O` : 75

Reported responders at 30 mg/kg of `CCOc1cc(C=C(C#N)C(N)=O)cc(CSc2ccccc2)c1OC` : 50

Reported responders at 30 mg/kg of `CCOc1cc(C=C2CCOC2=O)cc(CSc2ccc(Cl)c(Cl)c2)c1O` : 75

Reported responders at 30 mg/kg of `CCOc1cc(C=C(C#N)C(N)=O)cc(CSc2c(F)c(F)c(F)c(F)c2F)c1O` : 50

Reported responders at 30 mg/kg of `CCOc1cc(C=C2C(=O)NN(c3ccccc3)C2=O)cc(CSc2ccc(Br)cc2)c1O` : 75

Reported responders at 30 mg/kg of `CCOc1cc(C=C(C#N)C(N)=O)cc(CSc2ccc(Cl)c(Cl)c2)c1O` : 100
